PROTOCOL_TEXT: Phase I study CXR1002-001: plasma pharmacokinetics (LC-MS/MS)
Assay type: in vivo, human
TEST_CONTEXT: human, plasma, oral, 200 mg, Patient 009 Dose 200 mg; 171 hr; read-out: Concentration
READOUT_NAME: concentration at 171 h (µM)
Entry rule: numbers only, all in µM.

Entry under review: O=C(O)C(F)(F)C(F)(F)C(F)(F)C(F)(F)C(F)(F)C(F)(F)C(F)(F)F [CXR1002] . Reported concentration at 171 h?
170

----------
PROTOCOL_TEXT: Phase I study CXR1002-001: plasma pharmacokinetics (LC-MS/MS)
Assay type: in vivo, human
TEST_CONTEXT: human, plasma, oral, 1000 mg, Patient 040, 1000 mg, person, plasma, 24 hr (Day 2); read-out: Concentration
READOUT_NAME: concentration at 24 h
Please report the result as a number followed by the unit.

Name the reported concentration at 24 h value associated with the compound O=C(O)C(F)(F)C(F)(F)C(F)(F)C(F)(F)C(F)(F)C(F)(F)C(F)(F)F [CXR1002]
148 µM
